Target: human Tissue Factor (hTF), endogenously expressed on human TF-positive cells (human, UniProt P13726 33-295)
Experiment: cell-based or functional assay
Record met whenever % GM-CSF, 6.4 nM antibody, MDA-MB-231 cells + FVIIa is at 20% or higher; record not met when lower.

In plain terms: is recorded % GM-CSF, 6.4 nM antibody, MDA-MB-231 cells + FVIIa at least 20% for anti-TF antibody 54E (antibody, human IgG1, V domains shown, Human IgG1) VH: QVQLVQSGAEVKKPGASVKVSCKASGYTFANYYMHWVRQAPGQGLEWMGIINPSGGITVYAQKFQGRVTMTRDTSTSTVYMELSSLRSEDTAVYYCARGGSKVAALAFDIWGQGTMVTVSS VL: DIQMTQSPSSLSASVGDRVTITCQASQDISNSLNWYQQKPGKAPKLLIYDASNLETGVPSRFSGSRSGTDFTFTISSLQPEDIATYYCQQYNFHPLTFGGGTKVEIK ?
not met

# iterate: anti-TF antibody 39A (antibody, human IgG1, V domains shown, Human IgG1) VH: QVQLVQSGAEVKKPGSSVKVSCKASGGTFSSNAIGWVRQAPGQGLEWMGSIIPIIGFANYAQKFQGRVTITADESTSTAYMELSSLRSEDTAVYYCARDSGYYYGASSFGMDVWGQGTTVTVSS VL: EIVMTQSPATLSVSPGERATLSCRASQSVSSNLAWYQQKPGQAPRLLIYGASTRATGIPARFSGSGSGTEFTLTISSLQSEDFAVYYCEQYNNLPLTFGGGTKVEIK
not met

# iterate: anti-TF antibody 43B7 (antibody, human IgG1, V domains shown) VH: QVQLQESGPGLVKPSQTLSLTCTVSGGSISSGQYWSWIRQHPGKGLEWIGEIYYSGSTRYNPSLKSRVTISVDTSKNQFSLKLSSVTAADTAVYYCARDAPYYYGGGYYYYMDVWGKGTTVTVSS VL: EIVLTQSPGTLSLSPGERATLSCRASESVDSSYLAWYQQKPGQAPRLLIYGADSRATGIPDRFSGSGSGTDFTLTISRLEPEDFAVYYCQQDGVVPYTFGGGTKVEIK
not met

# iterate: anti-TF antibody 43B1 (antibody, human IgG1, V domains shown) VH: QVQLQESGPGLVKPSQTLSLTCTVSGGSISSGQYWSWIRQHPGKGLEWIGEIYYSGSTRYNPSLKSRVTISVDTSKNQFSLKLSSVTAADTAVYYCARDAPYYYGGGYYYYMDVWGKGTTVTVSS VL: EIVLTQSPGTLSLSPGERATLSCRASESVDSSYLAWYQQKPGQAPRLLIYGASTRQTGIPDRFSGSGSGTDFTLTISRLEPEDFAVYYCQQAGVVPYTFGGGTKVEIK
not met

# iterate: anti-TF antibody 25G9 (antibody, human IgG1, kappa, V domains shown, Human IgG1) VH: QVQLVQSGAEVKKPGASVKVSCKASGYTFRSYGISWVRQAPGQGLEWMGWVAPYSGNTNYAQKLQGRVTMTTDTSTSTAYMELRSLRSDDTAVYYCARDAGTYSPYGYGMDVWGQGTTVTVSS VL: DIQMTQSPSTLSASVGDRVTITCQASQSIDSWLAWYQQKPGKAPKLLIYSASYLESGVPSRFSGSGSGTEFTLTISSLQPDDFATYYCQRFQSLPPFTFGGGTKVEIKR
met

# iterate: anti-TF antibody 25A5 (antibody, human IgG1, kappa, V domains shown) VH: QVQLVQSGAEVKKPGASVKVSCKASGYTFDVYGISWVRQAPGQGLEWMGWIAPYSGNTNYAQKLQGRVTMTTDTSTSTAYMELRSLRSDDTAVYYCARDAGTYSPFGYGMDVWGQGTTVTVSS VL: DIQMTQSPSTLSASVGDRVTITCRASESISNWLAWYQQKPGKAPKLLIYKAYSLEYGVPSRFSGSGSGTEFTLTISSLQPDDFATYYCQQFQKLPPFTFGGGTKVEIKR
not met

# iterate: anti-TF antibody 25G (antibody, human IgG1, kappa, V domains shown, Human IgG1) VH: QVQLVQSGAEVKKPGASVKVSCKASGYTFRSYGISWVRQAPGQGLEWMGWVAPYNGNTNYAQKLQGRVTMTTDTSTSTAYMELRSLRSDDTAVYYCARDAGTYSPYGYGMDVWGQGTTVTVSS VL: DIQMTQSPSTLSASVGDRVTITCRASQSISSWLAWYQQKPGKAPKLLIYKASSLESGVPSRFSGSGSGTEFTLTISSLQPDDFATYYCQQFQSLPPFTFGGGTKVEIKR
met

# iterate: anti-TF antibody 43D8 (antibody, human IgG1, kappa, V domains shown, Human IgG1) VH: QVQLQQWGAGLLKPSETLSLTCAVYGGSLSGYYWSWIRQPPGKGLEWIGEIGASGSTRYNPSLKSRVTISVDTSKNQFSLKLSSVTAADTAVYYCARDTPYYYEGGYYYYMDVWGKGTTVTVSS VL: EIVLTQSPGTLSLSPGERATLSCRASQSVSSSFLAWYQQKPGQAPRLLIYGAYSRATGIPDRFSGSGSGTDFTLTISRLEPEDFAVYYCQQAGVVPYTFGGGTKVEIKR
met

# iterate: anti-TF antibody 25A (antibody, human IgG1, V domains shown, Human IgG1) VH: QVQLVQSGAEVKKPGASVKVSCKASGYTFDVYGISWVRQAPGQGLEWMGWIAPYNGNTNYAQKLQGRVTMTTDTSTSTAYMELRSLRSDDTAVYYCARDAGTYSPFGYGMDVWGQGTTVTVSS VL: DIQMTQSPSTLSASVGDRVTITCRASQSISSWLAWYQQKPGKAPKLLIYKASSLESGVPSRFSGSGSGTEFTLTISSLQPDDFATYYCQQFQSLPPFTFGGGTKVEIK
met

# iterate: anti-TF antibody 43D (antibody, human IgG1, V domains shown) VH: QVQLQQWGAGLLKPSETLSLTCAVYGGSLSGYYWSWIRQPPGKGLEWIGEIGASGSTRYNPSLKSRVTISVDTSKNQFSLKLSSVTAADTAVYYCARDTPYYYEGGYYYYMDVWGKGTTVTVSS VL: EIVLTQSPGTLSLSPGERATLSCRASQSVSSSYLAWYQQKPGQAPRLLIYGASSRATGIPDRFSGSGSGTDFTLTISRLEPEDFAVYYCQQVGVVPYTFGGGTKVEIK
met
